tested on: TDF; test: cell number relative to DMSO (% of DMSO); higher = more cells (less growth inhibition / toxicity); details: concentration: 10 µM; 24 h;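 also: TDF denotes transformed human dermal fibroblasts of mesenchymal origin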
MEASUREMENT_TYPE: cell number

• CCOC(=O)[C@H](CCc1ccccc1)N[C@@H](C)C(=O)N1CCC[C@H]1C(=O)O.O=C(O)C=CC(=O)O = 99.6
• CCCCCC=CCC=CCC=CC=CC(O)CCCC(=O)O (centres undefined) = 103
• CC(=O)OCC1(O)CC23CCC4c5ccoc5C=CC4(C)C2CCC1C3 (centres undefined) [Kahweol Acetate] = 95.3
• COc1ccc(/C=C2\COc3ccc(C)cc3C2=O)cc1O = 28
• O=C(Nc1ccc(Cl)cc1)c1ccccc1NCc1ccncc1 = 96.3
• O=c1cc(-c2ccc(O)c(O)c2)oc2cc(O)cc(O)c12 = 62.6
• CC(C)Cn1cnc2c(N)nc3ccccc3c21 = 93.4
• CCCC(C(=O)OCCN(CC)CC)(c1ccccc1)c1ccccc1.Cl [SKF-525A hydrochloride] = 100
• NC(=O)N1c2ccccc2C=Cc2ccccc21 [Carbamazepine] = 111
• O=C(Nc1cc(C(=O)Nc2ccc(S(=O)(=O)[O-])cc2S(=O)(=O)[O-])cc(C(=O)Nc2ccc(S(=O)(=O)[O-])cc2S(=O)(=O)[O-])c1)Nc1cc(C(=O)Nc2ccc(S(=O)(=O)[O-])cc2S(=O)(=O)[O-])cc(C(=O)Nc2ccc(S(=O)(=O)[O-])cc2S(=O)(=O)[O-])c1.[Na+].[Na+].[Na+].[Na+].[Na+] [NF449 octasodium salt] = 92.8
• CC12CCc3occc3C1CCC13CC(CCC12)C(O)(CO)C3 (centres undefined) = 101
• O=C(c1cc(O)c(O)c([N+](=O)[O-])c1)c1ccccc1F = 106
• CCCCCN(C)CCC(O)(P(=O)(O)O)P(=O)(O)O [Ibandronate] = 100
• OCc1ccc(-c2nn(Cc3ccccc3)c3ccccc23)o1 = 106
• CC12CCC3c4ccc(O)cc4CC(CCCCCCCCCS(=O)CCCC(F)(F)C(F)(F)F)C3C1CCC2O (centres undefined) = 94.3
• CC(=O)OCC(=O)C1(O)CCC2C3CCC4=CC(=O)CCC4(C)C3C(O)CC21C (centres undefined) [Hydrocortisone 21-acetate] = 104
• Cc1cc(=O)oc2cc(O)ccc12 = 103
• NC(=O)c1cnccn1 [Pyrazinecarboxamide] = 106
• CCCCCC=CCC=CC=CC=CC(O)C(O)CCCC(=O)O (centres undefined) = 100
• C=CCc1ccc(O)c(-c2cc(CC=C)ccc2O)c1 = 98.2
• O=C1NC(=O)C(=Cc2cccc(C(F)(F)F)c2)S1 = 103
• O=C(C=Cc1ccc(O)c(O)c1)OC(Cc1ccc(O)c(O)c1)C(=O)O (centres undefined) = 101
• Cl.Cn1c(=O)c(Oc2ccc(F)cc2F)cc2cnc(NC3CCOCC3)nc21 = 99.2
• Cc1[nH]c(=O)c(C#N)cc1-c1ccncc1 = 108
• CCOC(=O)CNC(=O)[C@@H]1CCCN1C(=O)Cc1ccccc1 = 109
• CCCCCC(O)C=CC1C(O)CC(O)C1CC=CCCCC(=O)O (racemic) = 105
• CS(=O)(=O)O.NC(=NC(=O)c1nc(Cl)c(N)nc1N)Nc1ccccc1 [Phenamil methanesulfonate] = 116
• CCN1CCCC1CNC(=O)c1cc(S(N)(=O)=O)ccc1OC [(S)-(-)-Sulpiride] = 98.1
• O=c1c(-c2ccc(F)cc2)c(-c2ccncc2)[nH]n1-c1ccc(Cl)cc1 = 111
• COc1cc2c(cc1OC)C(=O)C(CC1CCN(Cc3ccccc3)CC1)C2.Cl.Cl (centres undefined) [Donepezil.HCl] = 114
• CCCCCC=CCC=CCC1OC1CC=CCCCC(=O)O (centres undefined) = 101
• O=C(Nc1ccc(Cl)cc1)Nc1cccc(-c2cccc(N3CCCC3)n2)c1 = 87.5
• CC(C)CC(NC(=O)C(Cc1ccccc1)NC(=O)c1cnccn1)B(O)O (centres undefined) = 10.2
• Nc1ccc(C(=O)O)c(O)c1 = 98.2
